Just for reference, a melting point compilation (Tetko et al.; mined from patent text by program, amines drawn as free bases though some values may be those of a salt) is where these values come from.

metric name: melting point

Solved cases below.
>  <compound>
CCc1ccc2c(c1)C(=O)N(CCCCN1CCC(n3c(=O)oc4ccccc43)CC1)S2(=O)=O

>  <melting point>
165 to 168 °C

$$$$
>  <compound>
COC1(c2ccccc2)CCc2c(C(=O)O)cc3c(nc(C)n3C)c2O1 (centres undefined)

>  <melting point>
288 to 289 °C

$$$$

Could you share which melting point value was measured for COC(=O)C1=C(C)NC(C)=C(C(=O)OCCCCCCCCCCO)[C@H]1c1cccc2nonc12 ?
120 °C

Same again, this time with CNC1CCN(C(=O)CC2=C(n3nc(-c4c(-c5ccccc5)nn5ccccc45)ccc3=O)CCCC2)CC1
101 to 105 °C
